FYI, the data here is from patent US20260250337A1.

- Method description: Circular dichroism, helical fraction (Lifson-Roig)
- Type: physicochemical
- Setup conditions: POPC 10 mmol L^−1; peptide 50 μmol L^−1
No end group written: not given here.
// NB: equality with 0.2 counts as false; only Helical fraction (fH) POPC strictly below is true

Examples with answers:
{"columns": ["Substance", "Assigned label"],
 "data": [
  ["FLGALWNVAKSVF-NH2 [VmCT1, reference compound]", "false"],
  ["SLLSLIRKLIT-NH2 [Decoralin, reference compound]", "false"],
  ["GLGALLNVIKSGL-NH2 [AV]", "true"]
]}

Query: Is Helical fraction (fH) POPC strictly under 0.2 for the entry SLGALINVLKSGG-NH2 [DV] ?
Response: true

Query: Is Helical fraction (fH) POPC strictly under 0.2 for the entry FLPLIGRVLSGIL-NH2 [Temporin A, reference compound] ?
Response: false

Query: Is Helical fraction (fH) POPC strictly under 0.2 for the entry ILGAILNVLKSLG-NH2 [PV] ?
Response: false

Query: Is Helical fraction (fH) POPC strictly under 0.2 for the entry FLPLLWRVASGVF-NH2 [VT] ?
Response: false

Query: Is Helical fraction (fH) POPC strictly under 0.2 for the entry FLGAIGNVLKSIL-NH2 [TV] ?
Response: true

###

- Tested on: K. pneumoniae ATCC13883
- Method description: Broth microdilution MIC, ESKAPE pathogens
- Format: cell-based
- Setup conditions: LB, 37° C., 24 h
No end group written: not given here.
Some substances, each annotated with its measured MIC K. pneumoniae ATCC13883.
# number only, unit µM dropped from output

{"columns": ["Substance", "MIC K. pneumoniae ATCC13883 (µM)"],
 "data": [
  ["ILGAILNVLKSLG-NH2 [PV]", 64],
  ["FLPLLWRVASGVF-NH2 [VT]", 128],
  ["FLGTLWGGAKGVF-NH2 [VP]", 128],
  ["FLGALWNVAKSVF-NH2 [VmCT1, reference compound]", 64],
  ["ILGTILGLLKGL-NH2 [Protonectin, reference compound]", 64]
]}

FLPLIGRVLSGIL-NH2 [Temporin A, reference compound] yielded MIC K. pneumoniae ATCC13883 of 128

FLGAIGNVLKSIL-NH2 [TV] yielded MIC K. pneumoniae ATCC13883 of 16

###

- Tested on: P. aeruginosa PAO1
- Method description: Broth microdilution MIC, ESKAPE pathogens
- Format: cell-based
- Setup conditions: LB, 37° C., 24 h
No end group written: not given here.
Measured property: MIC P. aeruginosa PAO1 (µM)
# number only, unit µM dropped from output

The cases that follow already have their MIC P. aeruginosa PAO1 on record.
{"columns": ["Substance", "Target under test", "Readout units", "MIC P. aeruginosa PAO1"],
 "data": [
  ["FLGTLWGGAKGVF-NH2 [VP]", "P. aeruginosa PAO1", "µM", 128],
  ["FLGALWNVAKSVF-NH2 [VmCT1, reference compound]", "P. aeruginosa PAO1", "µM", 128],
  ["FLGAIGNVLKSIL-NH2 [TV]", "P. aeruginosa PAO1", "µM", 128],
  ["ILGTILGLLKGL-NH2 [Protonectin, reference compound]", "P. aeruginosa PAO1", "µM", 128],
  ["FLPLIGRVLSGIL-NH2 [Temporin A, reference compound]", "P. aeruginosa PAO1", "µM", 128]
]}

Here's the next entry for you.
FLPLLWRVASGVF-NH2 [VT] yielded MIC P. aeruginosa PAO1 of 128

###

- Tested on: C. albicans MDM8
- Method description: Liquid growth inhibition assay, MIC (antifungal)
- Type: cell-based, Candida albicans
- Setup conditions: 37° C., 24 h
No end group written: not given here.
Measured property: MIC C. albicans MDM8 (µM)
# number only, unit µM dropped from output

The cases that follow already have their MIC C. albicans MDM8 on record.
{"columns": ["Substance", "MIC C. albicans MDM8 (µM)"],
 "data": [
  ["GLGALLNVIKSGL-NH2 [AV]", 50],
  ["ILGTILGLLKGL-NH2 [Protonectin, reference compound]", 12.5],
  ["FLGSLWRKAGTVF-NH2 [VD]", 25]
]}

Here's the next entry for you.
FLPLLWRVASGVF-NH2 [VT] yielded MIC C. albicans MDM8 of 12.5

###

Some substances, each annotated with its measured log10 of MHC.
- Tested on: human erythrocytes
- Method description: Hemolytic activity assay
- Format: cell-based
- Setup conditions: human erythrocytes, 1 h, room temperature; concentration with approximately 0% of hemolytic activity
No end group written: not given here.
Recall that a logarithmic scale is used here: each number is log10 of MHC in µmol/L.

The cases that follow already have their log10 of MHC on record.
{"columns": ["Substance", "Numeric value"],
 "data": [
  ["FLPLLWRVASGVF-NH2 [VT]", -0.70],
  ["FLPLIGRVLSGIL-NH2 [Temporin A, reference compound]", -0.70],
  ["SLGALINVLKSGG-NH2 [DV]", -1.00],
  ["ILGTILGLLKGL-NH2 [Protonectin, reference compound]", 1.10],
  ["SLLSLIRKLIT-NH2 [Decoralin, reference compound]", 0.20],
  ["H-GLLKRIKTLL-NH2 [Anoplin, reference compound]", 1.70],
  ["ILGAILNVLKSLG-NH2 [PV]", 1.40],
  ["FLGAIGNVLKSIL-NH2 [TV]", -0.70]
]}

FLGALWNVAKSVF-NH2 [VmCT1, reference compound] yielded log10 of MHC of 0.80

###

- System: human erythrocytes
- Method description: Hemolytic activity assay
- Assay type: cell-based
- Setup conditions: human erythrocytes, 1 h
No end group written: not given here.
Mark Not satisfied for Hemolytic activity, concentration of peptide needed to kill 10% of red blood cells values under 2 µmol/L, and Satisfied for everything at or above.

Examples with answers:
{"columns": ["Substance", "Target under test", "Assigned label"],
 "data": [
  ["FLPLIGRVLSGIL-NH2 [Temporin A, reference compound]", "human erythrocytes", "Not satisfied"],
  ["FLGTLWGGAKGVF-NH2 [VP]", "human erythrocytes", "Satisfied"],
  ["ILGAILNVLKSLG-NH2 [PV]", "human erythrocytes", "Satisfied"],
  ["SLGALINVLKSGG-NH2 [DV]", "human erythrocytes", "Not satisfied"],
  ["SLLSLIRKLIT-NH2 [Decoralin, reference compound]", "human erythrocytes", "Not satisfied"],
  ["GLGALLNVIKSGL-NH2 [AV]", "human erythrocytes", "Satisfied"]
]}

Turning to the following substance.
Query: Please indicate if the recorded Hemolytic activity, concentration of peptide needed to kill 10% of red blood cells for ILGTILGLLKGL-NH2 [Protonectin, reference compound] meets or exceeds 2 µmol/L.
Response: Satisfied

###

- Test system: human erythrocytes
- Method description: Hemolytic activity assay
- Assay type: cell-based
- Setup conditions: human erythrocytes, 1 h
No end group written: not given here.
Measured property: Hemolytic activity, concentration of peptide needed to kill 10% of red blood cells (µmol/L)
# number only, unit µmol/L dropped from output

{"columns": ["Substance", "Readout units", "Numeric value"],
 "data": [
  ["H-GLLKRIKTLL-NH2 [Anoplin, reference compound]", "µmol/L", 50],
  ["FLGAIGNVLKSIL-NH2 [TV]", "µmol/L", 0.2]
]}

Here's the next entry for you.
Considering FLPLLWRVASGVF-NH2 [VT] , its Hemolytic activity, concentration of peptide needed to kill 10% of red blood cells with human erythrocytes was recorded as 0.2

###

Some substances, each annotated with its measured Helical fraction (fH) POPC:POPG.
- Method description: Circular dichroism, helical fraction (Lifson-Roig)
- Assay type: physicochemical
- Setup conditions: POPC:POPG 3:1, mol:mol, 10 mmol L^−1; peptide 50 μmol L^−1
No end group written: not given here.
# answer = number (no unit)

The cases that follow already have their Helical fraction (fH) POPC:POPG on record.
{"columns": ["Substance", "Measured property", "Numeric value"],
 "data": [
  ["FLGAIGNVLKSIL-NH2 [TV]", "Helical fraction (fH) POPC:POPG", 0.06],
  ["ILGAILNVLKSLG-NH2 [PV]", "Helical fraction (fH) POPC:POPG", 0.63],
  ["FLPLLWRVASGVF-NH2 [VT]", "Helical fraction (fH) POPC:POPG", 1.00],
  ["SLLSLIRKLIT-NH2 [Decoralin, reference compound]", "Helical fraction (fH) POPC:POPG", 0.40],
  ["SLGALINVLKSGG-NH2 [DV]", "Helical fraction (fH) POPC:POPG", 0.41]
]}

GLGALLNVIKSGL-NH2 [AV] yielded Helical fraction (fH) POPC:POPG of 0.04

FLPLIGRVLSGIL-NH2 [Temporin A, reference compound] yielded Helical fraction (fH) POPC:POPG of 0.19

FLGALWNVAKSVF-NH2 [VmCT1, reference compound] yielded Helical fraction (fH) POPC:POPG of 0.25
